protocol: in vivo
condition-summary: mouse, iv, 10 mg/kg
Protocol: Animal care was in accordance with the guidelines at the Ohio State University. […] The lung surface area (counted as number of pixel) occupied by the tumor was calculated as a fraction of the total lung area, using Adobe PhotoShop. The number of tumor cells in residual tumors and the fraction of apoptotic cells in each tumor were also determined microscopically. […] This was determined by counting the number of non-apoptotic tumor cells in randomly selected microscopic fields at 400× magnification. […]
readout: concentration at 72 h

smiles_input=Cc1ccc(C(=O)Nc2ccc(S(=O)(=O)O)c3cc(S(=O)(=O)O)cc(S(=O)(=O)O)c23)cc1NC(=O)c1cccc(NC(=O)Nc2cccc(C(=O)Nc3cc(C(=O)Nc4ccc(S(=O)(=O)O)c5cc(S(=O)(=O)O)cc(S(=O)(=O)O)c45)ccc3C)c2)c1 result="~10 µM"

---

Test system: Human lung A459
protocol: FGF-induced resistance, inhibition of BrdU incorporation
Format: cell-based
condition-summary: A459, r-aFGF 10 ng/ml, read-out: Drug concentration needed to produce 50% inhibition
Method: Prior to drug treatment, cells were incubated for 4 days with tumor CM or with r-aFGF ad/or r-bFGF-containing medium, supplemented with 1% FBS (final protein concentration adjusted to 2 mg/ml). The medium was renewed every other day. […] The experimental conditions are described briefly below. […] For the studies on cells derived from the human prostate, lung, pharynx, colon and breast cancer cells, the drug effect was determined by the inhibition of BrdU incorporation. […]
pIC50: −log10 of the molar value.
readout: pIC50

smiles_input=COc1cccc2c1C(=O)c1c(O)c3c(c(O)c1C2=O)C[C@@](O)(C(=O)CO)C[C@@H]3O[C@H]1C[C@H](N)[C@H](O)[C@H](C)O1 quantitative_readout=6.91

---

Tested on: Human prostate PC3 tumor cells
protocol: aFGF/bFGF-induced resistance and reversal by suramin, sulforhodamine B assay
Type: cell-based
condition-summary: read-out: IC50, Control (without FGF treatment), Suramin, 15 μM; drug 96 hours with 15 μM suramin
// values below are reported IC50
readout: IC50 (µM)

molecule=Sc1ncnc2nc[nH]c12 target_of_assay="Human prostate PC3 tumor cells" readout=IC50 quantitative_readout=1.67
molecule=Nc1ccn([C@@H]2O[C@H](CO)[C@@H](O)[C@@H]2O)c(=O)n1 target_of_assay="Human prostate PC3 tumor cells" readout=IC50 quantitative_readout=0.46
molecule=CN(C)/N=N/c1[nH]cnc1C(N)=O target_of_assay="Human prostate PC3 tumor cells" readout=IC50 quantitative_readout=37.6
molecule="COc1cccc2c1C(=O)c1c(O)c3c(c(O)c1C2=O)C[C@@](O)(C(=O)CO)C[C@@H]3O[C@H]1C[C@H](N)[C@@H](O)[C@H](C)O1 [Epirubicin]" target_of_assay="Human prostate PC3 tumor cells" readout=IC50 quantitative_readout=0.12
molecule=Nc1nc(F)nc2c1ncn2[C@@H]1O[C@H](CO)[C@@H](O)[C@@H]1O target_of_assay="Human prostate PC3 tumor cells" readout=IC50 quantitative_readout=5.2
molecule=O=NN(CCCl)C(=O)NCCCl target_of_assay="Human prostate PC3 tumor cells" readout=IC50 quantitative_readout=34.2
molecule=O=C(O)CCCc1ccc(N(CCCl)CCCl)cc1 target_of_assay="Human prostate PC3 tumor cells" readout=IC50 quantitative_readout=33.1
molecule=O=c1[nH]cc(F)c(=O)[nH]1 target_of_assay="Human prostate PC3 tumor cells" readout=IC50 quantitative_readout=2.39
molecule="O=P1(NCCCl)OCCCN1CCCl (stereo not drawn) [Ifosfamide]" target_of_assay="Human prostate PC3 tumor cells" readout=IC50 quantitative_readout=2.23

---

System: Human colon HT-29
protocol: FGF-induced resistance, inhibition of BrdU incorporation
Type: cell-based
condition-summary: HT-29, 96 h, r-aFGF + r-bFGF 1 ± 1 ng/ml, read-out: Drug concentration needed to produce 50% inhibition
readout: IC50 (µM)

smiles_input=O=c1[nH]cc(F)c(=O)[nH]1 quantitative_readout=7.07
smiles_input=COc1cccc2c1C(=O)c1c(O)c3c(c(O)c1C2=O)C[C@@](O)(C(=O)CO)C[C@@H]3O[C@H]1C[C@H](N)[C@H](O)[C@H](C)O1 quantitative_readout=0.131

---

System: human prostate PC3-LN tumor cells
protocol: cells
Type: cell-based
condition-summary: read-out: IC50 in the monolayer cultures of PC3-LN cells
pIC50: −log10 of the molar value.
In this section, each of the compounds is paired with its reported pIC50.
readout: pIC50

compound="CC(=O)O[C@H]1C(=O)[C@@]2(C)[C@H]([C@H](OC(=O)c3ccccc3)[C@]3(O)C[C@H](OC(=O)[C@H](O)[C@@H](NC(=O)c4ccccc4)c4ccccc4)C(C)=C1C3(C)C)[C@]1(OC(C)=O)CO[C@@H]1C[C@@H]2O [Paclitaxel]" quantitative_readout=8.10
compound="COc1cccc2c1C(=O)c1c(O)c3c(c(O)c1C2=O)C[C@@](O)(C(=O)CO)C[C@@H]3O[C@H]1C[C@H](N)[C@H](O)[C@H](C)O1 [Doxorubicin]" quantitative_readout=7.77

---

System: Human prostate PC3 tumor cells
protocol: aFGF/bFGF-induced resistance and reversal by suramin, sulforhodamine B assay
Format: cell-based
condition-summary: read-out: IC50, Control (drug treatment only, without FGF treatment), No suramin; drug 96 hours
pIC50: −log10 of the molar value.
pIC50 values, listed per item
readout: pIC50

compound="Nc1ncnc2c1ncn2[C@@H]1O[C@H](CO)[C@@H](O)[C@@H]1O [Adenosine arabinoside (Ara-A), Adenosine arabinoside]" target_of_assay="Human prostate PC3 tumor cells" readout=pIC50 quantitative_readout=4.67
compound="N.N.O=C([O-])C1(C(=O)[O-])CCC1.[Pt+2] [Carboplatin]" target_of_assay="Human prostate PC3 tumor cells" readout=pIC50 quantitative_readout=5.65
compound="Nc1ccn([C@@H]2O[C@H](CO)[C@@H](O)[C@@H]2O)c(=O)n1 [Cytarabine/Ara-C, Cytarabine]" target_of_assay="Human prostate PC3 tumor cells" readout=pIC50 quantitative_readout=6.41
compound="CC(O)CCC(=O)c1ccoc1 (stereo not drawn) [4-Ipomeanol]" target_of_assay="Human prostate PC3 tumor cells" readout=pIC50 quantitative_readout=2.39
compound="CCC1=C[C@@H]2CN(C1)Cc1c([nH]c3ccccc13)[C@@](C(=O)OC)(c1cc3c(cc1OC)N(C)[C@H]1[C@@](O)(C(=O)OC)[C@H](OC(C)=O)[C@]4(CC)C=CCN5CC[C@]31[C@@H]54)C2 [Vinorelbin]" target_of_assay="Human prostate PC3 tumor cells" readout=pIC50 quantitative_readout=8.40
compound="N.N.[Cl][Pt][Cl] [Cisplatin]" target_of_assay="Human prostate PC3 tumor cells" readout=pIC50 quantitative_readout=5.56

---

compounds and their reported IC50
Tested on: Human prostate PC3 tumor cells
protocol: aFGF/bFGF-induced resistance and reversal by suramin, sulforhodamine B assay
Assay type: cell-based
condition-summary: read-out: IC50, aFGF 1 ng/ml + bFGF 3 ng/ml, With suramin
readout: IC50 (µM)

compound="S=P(N1CC1)(N1CC1)N1CC1 [Thiotepa]" target_of_assay="Human prostate PC3 tumor cells" readout=IC50 units_of_measure=µM quantitative_readout=4.17
compound="O=P1(N(CCCl)CCCl)NCCCO1 (centres unmarked) [Cyclophosphamide]" target_of_assay="Human prostate PC3 tumor cells" readout=IC50 units_of_measure=µM quantitative_readout=0.5
compound="O=C(O)CC(NC(=O)CP(=O)(O)O)C(=O)O [PALA, N-Phosphoracetyl-L-Asparate]" target_of_assay="Human prostate PC3 tumor cells" readout=IC50 units_of_measure=µM quantitative_readout=201
compound="O=C1NC2(CCCCC2)C(=O)N1CCN(CCCl)CCCl [Spiromustine]" target_of_assay="Human prostate PC3 tumor cells" readout=IC50 units_of_measure=µM quantitative_readout=26.7
compound="Oc1ncc(N(CCCl)CCCl)c(O)n1 [Uracil Mustard]" target_of_assay="Human prostate PC3 tumor cells" readout=IC50 units_of_measure=µM quantitative_readout=34.6
